Values compiled from PubChem BioAssay (NCI).

system: K-562 leukemia; test: NCI tumour cell line growth inhibition, 48 h
Task for the reader: assign each of the following compounds its reported TGI.

Would you please look over these solved cases?
INSERT INTO assay_data (compound, target_desc, result) VALUES
  ('O=C1c2ccccc2C(=O)c2nc(-c3ccccc3)c(-c3ccccc3)nc21', 'K-562 leukemia', '> 100 µM'),
  ('O=C1/C(=C/C(Cl)=C/c2ccccc2)SC(=S)N1CCc1ccc(O)cc1', 'K-562 leukemia', '> 100 µM'),
  ('Nc1ccn([C@@H]2C=C(CO)[C@@H](O)[C@H]2O)c(=O)n1', 'K-562 leukemia', '335 µM'),
  ('COc1cc(/C=C2\N=C(c3ccccc3)N(/N=C/c3cc4cc(C)ccc4nc3Cl)C2=O)cc(OC)c1OC', 'K-562 leukemia', '> 100 µM'),
  ('COC(=O)/C=C(\S/C(=C(/c1ccc(OC)cc1)n1cc(C(=O)OC)c(C(=O)OC)n1)c1ccc(OC)cc1)C(=O)OC', 'K-562 leukemia', '> 100 µM');

For each of the items listed, what is its TGI?
1. Cc1ccnc2c1ccc1nc3ccccc3n12
2. C=C1CC(COc2ccc3ccc(=O)oc3c2)(c2ccccc2)OC1=O (stereo unspecified)

// result
1. > 100 µM
2. 2.45 µM

For each of the items listed, what is its TGI?
1. CSC(=S)NNC(=O)c1ccncc1
2. COc1ccc(NC(C)=O)cc1N1C(=O)/C(=C\c2cc(OC)c(OC)c(OC)c2)S(=O)(=O)C1c1ccccc1 (stereo unspecified)
3. CC1=CCC[C@]2(C)C1=CC(=O)O[C@H]2c1ccoc1
4. COc1ccccc1NC(=O)C1=C(C)NC(C)=C(C(=O)Nc2ccccc2OC)C1c1ccccc1OC
5. COC(=O)C1C(=O)O[C@@H](c2ccc(OC)cc2OC)C1C(=O)OC (stereo partly specified)
6. CCCCCCCCCCCCCCCCOCCCOP(=O)(O)C1CCCN(O)C1=O (stereo unspecified)
7. C/C(=C\COP(=O)(O)OP(=O)(O)O)CC/C=C(\C)CNc1ccc([N+](=O)[O-])cc1
8. CN1CCN(Cc2ccc(NC(=O)c3cncc(C#Cc4c(N)ncc5cc(F)ccc45)c3)cc2C(F)(F)F)CC1

// result
1. 38.5 µM
2. > 100 µM
3. > 100 µM
4. > 100 µM
5. > 100 µM
6. 42.3 µM
7. > 100 µM
8. 1.09 µM

// query Recall the recorded TGI for CCOC(=O)c1c(-c2ccccc2)[nH]c2ccc(Cl)cc2c1=O with K-562 leukemia and state it.
// result > 100 µM

* * *

test system: SK-MEL-2 melanoma; experiment: NCI tumour cell line growth inhibition, 48 h
Task for the reader: assign each of the following compounds its reported TGI.

Would you please look over these solved cases?
INSERT INTO results (compound, quantity_name, result) VALUES
  ('CCOn1cc(C2=C(c3c[nH]c4ccccc34)C(=O)NC2=O)c2ccccc21', 'TGI', '25.8 µM'),
  ('C#C[C@]1(O)CC[C@H]2[C@@H]3CCC4=C/C(=N\OCCN5CCCC5)CC[C@]4(C)[C@H]3CC[C@@]21C', 'TGI', '24.4 µM'),
  ('CC(CCC(=O)O)[C@H]1CCC2[C@H]3C(CC(=O)[C@@]21C)[C@@]1(C)CCC(O)C[C@H]1C[C@@H]3O (stereo not given in full)', 'TGI', '> 100 µM'),
  ('CCOC(=O)c1cc2ncccc2c2ccccc12', 'TGI', '> 100 µM'),
  ('COc1cc2c3c(c4cc(OC)c(OC)cc4c2cc1OC)[C@H](O)[C@@H]1CCCN1C3', 'TGI', '0.234 µM');

For each of the items listed, what is its TGI?
1. COc1cnc2c(c1)C(=O)c1c-2n(CCCN2CCN(C)CC2)c(=O)c2cc(Cl)ccc12
2. ON(CCc1ccccn1)Cc1ccccc1
3. C/C1=C\CC[C@@]2(C)O[C@@H]2[C@H]2OC(=O)C(C)C2C[C@H]1O (stereo not given in full)
4. O=S1(=O)OCCCOS(=O)(=O)C1Br

// result
23.2 µM
> 100 µM
> 100 µM
> 100 µM

// query Recorded TGI of CNC(=S)NNC1=NCCCCN1 , please.
// result > 100 µM

* * *

Task for the reader: assign each of the following compounds its reported TGI.
system: OVCAR-8 ovarian; test: NCI tumour cell line growth inhibition, 48 h

INSERT INTO measurements (compound, result) VALUES
  ('NC(=O)Oc1cc(OC(N)=O)cc(N(CCCl)CCCl)c1', '67.6 µM'),
  ('Cc1ccc(S(=O)(=O)n2cnc(CC(NC(=O)C3CCC(=O)N3C(=O)OCc3ccccc3)C(=O)N3CCCC3C(=O)NN)c2)cc1 (stereo not drawn)', '> 100 µM'),
  ('CCNc1nc(N2CC(=O)Nc3cc(OC)ccc32)c2ccccc2n1', '> 100 µM'),
  ('Nc1c(Cl)c([N+](=O)[O-])cc2c1OCCCCO2', '> 100 µM'),
  ('O=C1c2ccccc2C(=O)c2nc(-c3ccccc3)c(-c3ccccc3)nc21', '> 100 µM');

For each of the items listed, what is its TGI?
1. CCN(CC)c1ccc2c(c1)N=C1N=CC=CN1C2(c1ccc(N(C)C)cc1)c1ccc(N(C)C)cc1
2. C[C@]12CCC(=O)C=C1CC[C@@H]1[C@@H]2CC[C@]2(C)C(=O)/C(=C/c3cccc(OCCN4CCOCC4)c3)C[C@@H]12
3. S=C1NN=C2C(=C3CCCC4C5CCCCC5N2C34)N1 (stereo not drawn)

// result
17.5 µM
> 100 µM
> 100 µM

For each of the items listed, what is its TGI?
1. COc1ccc(/C(Cl)=C(\C=O)c2ccc(Cl)c(Cl)c2)cc1OC
2. Cc1cc(C)n(-c2c(O)ccc(O)c2-n2nc(C)cc2C)n1
3. C[C@@H]1OC2(O)[C@@H]3CCCN3C(=O)N(Cc3ccccc3)N2C1=O (stereo partly drawn)
4. CC1OC(O)CC(OC(=O)c2ccccc2)C1OC(=O)c1ccccc1 (stereo not drawn)
5. C/C(=C\c1ccn(-c2ccc(N)cc2)n1)[C@@H]1C[C@@H]2O[C@]2(C)CCC[C@H](C)[C@H](O)[C@@H](C)C(=O)C(C)(C)[C@@H](O)CC(=O)O1
6. CCOC(=O)c1cc2ncccc2c2ccccc12

// result
1. 57.7 µM
2. > 100 µM
3. > 100 µM
4. 31.6 µM
5. > 50 µM
6. > 100 µM

For each of the items listed, what is its TGI?
1. COc1ccc(CCN(C)C(=O)CC(C#N)(c2ccccc2)c2ccc(OC)c(OC)c2)cc1OC (stereo not drawn)
2. CC1(C)C2CCC13C(=O)C1OC3(C2)C2C(=O)c3c(O)ccc(O)c3C(=O)C12 (stereo not drawn)
3. CO[C@H](c1ccccc1)[C@H](O)[C@](O)(c1ccccc1)P(=O)(OC)OC
4. COc1ccc(-c2cc(-c3ccco3)c(C#N)c(=S)n2C2OC(CO)C(O)C(O)C2O)cc1 (stereo not drawn)

// result
> 100 µM
> 93.9 µM
> 100 µM
> 100 µM

* * *

test system: SN12C renal; test: NCI tumour cell line growth inhibition, 48 h
Task for the reader: assign each of the following molecules its reported log10 TGI.
// do not treat as linear: log10 of TGI, unit µM

Would you please look over these solved cases?
INSERT INTO measurements (given_smiles, quantity_name, result) VALUES
  ('O=C1/C(=C/c2ccc(Cl)cc2)CN(C(=O)C(Cl)Cl)C/C1=C\c1ccc(Cl)cc1', 'log10 TGI', -0.27),
  ('C=C[C@]1(C)C=C2C(=O)[C@@]3(O)OC(=O)[C@@]4(CCCC(C)(C)[C@H]34)[C@@]2(O)CC1', 'log10 TGI', 0.68),
  ('CSC(=S)NNC(=O)c1ccncc1', 'log10 TGI', 1.62),
  ('O=C1c2cccnc2C(=O)c2c1nc1ccccc1c2-c1cncc(-c2c3c(nc4ccccc24)C(=O)c2cccnc2C3=O)c1', 'log10 TGI', -0.21),
  ('COc1ccc(/C=C/[N+](=O)[O-])cc1', 'log10 TGI', 1.75);

For each of the items listed, what is its log10 TGI?
1. Cc1cccc(N=C2c3cc([N+](=O)[O-])ccc3-c3c2cc([N+](=O)[O-])cc3[N+](=O)[O-])c1
2. Clc1ccc2nc(CCSCCc3nc4ccc(Cl)cc4[nH]3)[nH]c2c1

// result
[0.68, 1.48]

* * *

system: NCI-H226 lung; assay: NCI tumour cell line growth inhibition, 48 h
Task for the reader: assign each of the following molecules its reported TGI.

Would you please look over these solved cases?
INSERT INTO results (molecule, target_desc, result) VALUES
  ('CC1C2=CC=C(O2)C(C)(C)C2=CC=C(O2)C(C)(C)C2=CC=C(O2)C(C)(C)C2=CC=C1O2', 'NCI-H226 lung', '> 100 µM'),
  ('CN(C)CCN1C(=O)c2ccccc2C1(O)c1ccc(Cl)cc1 (stereo not drawn)', 'NCI-H226 lung', '> 100 µM');

For each of the items listed, what is its TGI?
1. COc1ccc(F)cc1C(=O)c1cnc(NC2CCN(S(C)(=O)=O)CC2)nc1N
2. ON(CCc1ccccn1)Cc1ccccc1
3. C[C@@H]1OC2(O)[C@@H]3CCCN3C(=O)N(Cc3ccccc3)N2C1=O (stereo partly drawn)

// result
1. > 20.6 µM
2. > 100 µM
3. > 100 µM

For each of the items listed, what is its TGI?
1. C/C(=C\COP(=O)(O)OP(=O)(O)O)CC/C=C(\C)CNc1ccc([N+](=O)[O-])cc1
2. COC(=O)c1c(C(=O)OC)c(C(c2ccccc2)c2ccccc2)n(-c2ccccc2)c1Cl
3. Cc1ccc(C(=O)NC2CCCCC2)cc1-c1ccc(C(=O)NCC2CC2)cc1
4. CC(C)(CCCCC(C)(C)NCC1COc2ccccc2O1)NCC1COc2ccccc2O1 (stereo not drawn)
5. O=C(O)CC1(C(=O)O)CCCCC1

// result
["> 100 µM", "> 10 µM", "> 25 µM", "> 10 µM", "> 100 µM"]

For each of the items listed, what is its TGI?
1. CCOC(=O)c1cc2ncccc2c2ccccc12
2. COC(=O)N/N=C(\C)C(CN1CCOCC1)C(c1ccccc1)c1cc2ccccc2oc1=O (stereo not drawn)
3. COc1ccc(N2C(=O)/C(=C\c3cc(OC)c(OC)c(OC)c3)S(=O)(=O)C2c2ccccc2)cc1 (stereo not drawn)
4. COC(=O)C(Cc1c[nH]c2ccccc12)NP(=O)(O)OCC1OC(n2cc(F)c(=O)[nH]c2=O)CC1O (stereo not drawn)
5. NC(=O)c1cc(C2OC(CO)C(O)C2O)nn1-c1ccc([N+](=O)[O-])cc1 (stereo not drawn)

// result
["> 100 µM", "> 100 µM", "> 100 µM", "> 100 µM", "> 100 µM"]

For each of the items listed, what is its TGI?
1. CCOC(=O)/C=C1\Nc2ccccc2-n2nnnc21
2. CC1(C)N=C(N)N=C(N)N1c1cccc(OCc2cccc([N+](=O)[O-])c2)c1
3. COC(=O)C1C(=O)O[C@@H](c2ccc(OC)cc2OC)C1C(=O)OC (stereo partly drawn)

// result
1: > 100 µM; 2: > 100 µM; 3: > 100 µM
